# subject_of_test: HLA B*4001 (human)

binder	IC50 (nM)
REDLWCGSL (modifications not checked) [… (DENV4 polyprotein 3338-3346, Table 4 #206)]	2
